experiment: chemical genetic growth profiling, strain panel (AID 1159580);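 further: tested at 20 µM; growth read once vehicle control cultures reached saturation at 30 °C; 1 = growth at the plate median or of vehicle wells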; conditions: S. cerevisiae deletion strains, growth OD, locus YAL026C, strain drs2
The whole screen tested about 5,500 compounds, of which about 2,000 (36%) were called active. Not shown: some 18% with an inconclusive outcome. No stated cut-off is given here; in the data, active means normalized growth mostly below about 0.91 (no sharp cut-off); inconclusive means no clear call, values can overlap the other calls; inactive means mostly above about 0.92. Some of the results follow.
Your answer must be one of the following: active, inactive

Record lookup: outcome of this test for C=C[C@@]1(C)CC(=O)[C@@]2(O)[C@](C)(O1)[C@@H](OC(C)=O)[C@@H](O)C1C(C)(C)CC[C@H](O)[C@@]12C (some centres undefined) ?
inactive

GET /call?item= COc1ccc(CCC(=O)c2c(O)cc(O[C@@H]3O[C@H](CO)C(O)[C@H](O)C3O[C@@H]3O[C@@H](C)[C@H](O)[C@@H](O)[C@H]3O)cc2O)cc1O (some centres undefined) returns the recorded outcome of this test.
inactive

Assay outcome for O=C(O)COc1ccc(Cl)cc1Cl : what was it?
inactive

Could you kindly confirm the outcome this assay logged for CC1(C)N([O-])[N+](=O)C1(C)Br (centres undefined) ?
inactive

What was the test verdict on Oc1c(Cl)cc(Cl)c(Cl)c1Cc1c(O)c(Cl)cc(Cl)c1Cl ?
active

Assay result, entry c1ccc2c(CC3=NCCN3)cccc2c1 — outcome?
inactive

Which outcome was assigned to NC(=O)NC1NC(=O)NC1=O (centres undefined) in this test?
inactive

Given CN(C/C=C/C#CC(C)(C)C)Cc1cccc2ccccc12 , state the outcome it received in this test.
active

Please share the test call associated with FC(F)(F)c1cccc(N2CCNCC2)c1 .
inactive

###

test: chemical genetic growth profiling, strain panel (AID 1159580); settings: S. cerevisiae deletion strains, growth OD, locus YLR262C, strain YPT6 (second series)
The campaign covered roughly 5,500 compounds. About 2,000 (36%) were called active. Inconclusive results (about 18%) are left out. No stated cut-off is given here; in the data, active means normalized growth mostly below about 0.91 (no sharp cut-off); inconclusive means no clear call, values can overlap the other calls; inactive means mostly above about 0.92. The list shows a part of the results.
// allowed return values: label 1 (active), label 0 (inactive)

Tell me the assay call for Nc1nc(F)nc2c1ncn2[C@@H]1O[C@H](COP(=O)(O)O)[C@@H](O)[C@@H]1O please.
label 0

What was the test verdict on CC(=O)Oc1ccc2c(c1)CCC1C2CC[C@]2(C)C(=O)CCC12 (stereo partly specified) ?
label 1

Returns: the outcome recorded for CC12CCC3C(=CCc4cc(O)ccc43)C1CCC2=O (stereo unspecified) in this assay.
label 1

Look up the recorded call for C[C@]12CCC3c4ccc(O)cc4CCC3C1CCC2=O (stereo partly specified) in this test.
label 1

Which outcome was entered for the compound O=C1CCCN1CC#CCN1CCCC1 in this test?
label 0

What is the recorded call for this compound in the test? COC1C=CC23c4cc5c(cc4CN(CC2O)[C@@H]3C1)OCO5 (stereo partly specified)
label 0

###

test: chemical genetic growth profiling, strain panel (AID 1159580);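 further: tested at 20 µM; growth read once vehicle control cultures reached saturation at 30 °C; 1 = growth at the plate median or of vehicle wells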; conditions: S. cerevisiae deletion strains, growth OD, locus YMR307W, strain GAS1, hits give low values
In all, about 5,500 compounds went through this assay and about 2,000 (36%) were called active. Inconclusive results (about 18%) are left out. This is one part of the list.
Simple rule here: normalized growth less than 1 is condition met, otherwise condition not met.

Confirm or reject: normalized growth of CC(=O)O[C@H]1C[C@@H](OC(C)=O)C(C)(C)C2C[C@@H](OC(C)=O)[C@]3(C)C(CC[C@@]4(C)[C@H](c5ccoc5)OC(=O)[C@H]5O[C@]543)[C@]21C (some centres undefined) lies strictly below 1
condition met

Hello, I'm reviewing records and need to know if normalized growth of CC(=O)O[C@@H]1CC2C(C)(C)[C@H](O)CC[C@]2(C)C2CC[C@@]3(C)[C@H](c4ccoc4)OC(=O)[C@H]4O[C@]43[C@@]21C (some centres undefined) is below 1. Could you check?
condition not met

Check if normalized growth falls below 1 for CC(=O)O[C@@H]1CC2C(C)(C)[C@@H](O)CC[C@]2(C)C2CC[C@@]3(C)[C@H](c4ccoc4)OC(=O)[C@H]4O[C@]43[C@@]21C (some centres undefined) .
condition met

Determine whether this molecule shows normalized growth lower than 1 (ties excluded): CNc1ccc(C(=O)CC(O)CCC(C)C2OC(=O)CC(O)CC(=O)CC(O)CC(O)CC(O)CC(O)CC3(O)CC(O)C(C(=O)OC)C(CC(OC4OC(C)C(O)C(N)C4O)/C=C/C=C/C=C/C=C/C=C/C=C/C=C/C2C)O3)cc1 (centres undefined)
condition met

Regarding COc1ccc(C(=O)c2sc(Nc3ccccc3)nc2-c2ccccc2)cc1 , kindly confirm whether its normalized growth is beneath 1.
condition met

Lab log: compare recorded normalized growth with 1; is it strictly lower for CC1[C@H](C)OC(=O)CC(O)CC(O)CC(O)CCC(O)C(O)C[C@]2(O)CC(O)C(C(=O)O)C(CC(OC3O[C@H](C)[C@@H](O)[C@H](N)[C@@H]3O)/C=C/C=C/C=C/C=C/CC/C=C/C=C/[C@H](C)[C@H]1O)O2 (some centres undefined) ?
condition met

Please check: normalized growth for CC(=O)OC1CC(OC(C)=O)C2(C)C(CC(OC(C)=O)C3(C)C2CCC2(C)C(c4ccoc4)OC(=O)C4OC423)C1(C)C (centres undefined) , strictly under 1 or not?
condition met

Is it true that normalized growth reported for CN=C(N)NCCCC(N)C(=O)O (centres undefined) is less than 1?
condition not met

normalized growth under 1? Item: CC1(C)C(=O)[C@@H]2O[C@@H]2[C@@]2(C)C1C[C@@H](O)[C@]1(C)C2CC[C@@]2(C)[C@H](c3ccoc3)OC(=O)C3OC321 (some centres undefined)
condition met

Please check: normalized growth for CC1CCC(NC(=O)N(CCCl)N=O)CC1 (centres undefined) , strictly under 1 or not?
condition met

Dear colleague, could you confirm whether normalized growth of Cc1nn(-c2ccccc2)nc1-c1nnc(-c2ccc(Cl)cc2)o1 falls below 1? Thanks.
condition not met

###

assay: chemical genetic growth profiling, strain panel (AID 1159580);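 further: tested at 20 µM; growth read once vehicle control cultures reached saturation at 30 °C; 1 = growth at the plate median or of vehicle wells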; conditions: S. cerevisiae deletion strains, growth OD, locus YHR129C, strain ARP1, hits give low values
The whole screen tested about 5,500 compounds, of which about 2,000 (36%) were called active. Inconclusive results (about 18%) are left out. Some of the results follow.
Property Name: normalized growth
API doc: respond with a numeric literal and nothing else, no unit.

Entry CN=C(N)NCCCC(N)C(=O)O (centres undefined) needs its normalized growth filled in; supply it.
1.01

Give recorded normalized growth. CC(=O)O[C@@H]1CC2C(C)(C)C(=O)C3OC3[C@]2(C)C2CC[C@@]3(C)[C@H](c4ccoc4)OC(=O)C4OC43[C@@]21C (some centres undefined)
1.01

Name the recorded normalized growth of the molecule listed here: NC(=O)NC1NC(=O)NC1=O (centres undefined)
0.983

Look up and state reported normalized growth for CC(=O)OCC(=O)[C@@]1(O)CCC2C3CCC4=CC(=O)C=CC4(C)C3[C@@H](O)C[C@@]21C (some centres undefined)
1

# return recorded normalized growth for entry CC(=O)O[C@H]1C[C@@H](OC(C)=O)C(C)(C)C2C[C@@H](OC(C)=O)[C@]3(C)C(CC[C@@]4(C)[C@H](c5ccoc5)OC(=O)[C@H]5O[C@]543)[C@]21C (some centres undefined)
1.02

Supply reported normalized growth belonging to this molecule: CCCNC(=O)NS(=O)(=O)c1ccc(Cl)cc1
1.01

Answer with the recorded normalized growth of CC(=O)O[C@H]1C[C@@H](OC(C)=O)C(C)(C)C2C[C@@H](O)[C@]3(C)C(CC[C@@]4(C)[C@H](c5ccoc5)OC(=O)[C@H]5O[C@]543)[C@]21C (some centres undefined) only.
0.988

Fill in normalized growth for record O=C(O)CCC1NCC2CC1CN1CCCCC21 (centres undefined)
1.01

State its normalized growth for this molecule: CC(C)c1nc(N(C)S(C)(=O)=O)nc(-c2ccc(F)cc2)c1/C=C/[C@@H](O)C[C@@H](O)CC(=O)O
0.99

###

assay: chemical genetic growth profiling, strain panel (AID 1159580);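 further: tested at 20 µM; growth read once vehicle control cultures reached saturation at 30 °C; 1 = growth at the plate median or of vehicle wells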; conditions: S. cerevisiae deletion strains, growth OD, locus YDR162C, strain NBP2
The whole screen tested about 5,500 compounds, of which about 2,000 (36%) were called active. Inconclusive results (about 18%) are left out. Cut-off read from the data, not from the text of the source: active = normalized growth mostly below about 0.91 (no sharp cut-off); inconclusive = no clear call, values can overlap the other calls; inactive = mostly above about 0.92. Some of the results follow.
Classes to choose from: active, inactive

Entry Fc1ccc([C@@H]2CCNC[C@H]2COc2ccc3c(c2)OCO3)cc1 : call = ?
inactive

Recorded test call requested for COc1ccc(-c2cc(=O)c3c(OC)cc(OC)cc3o2)cc1
inactive

Returns: the outcome recorded for COc1cc(OC)c2c(=O)cc(-c3ccccc3)oc2c1 in this assay.
active

Answer briefly: the call reported for CC1OC(O[C@H]2/C=C/C=C/C=C/C=C/C=C/C=C/C=C/[C@H](C)[C@@H](O)[C@@H](C)[C@H](C)OC(=O)CC(O)CC(O)CCC(O)C(O)CC(O)C[C@]3(O)C[C@H](O)C(C(=O)O)C(C2)O3)C(O)[C@H](N)C1O (some centres not stated) in this assay.
inactive

// param item: COc1cc(C)c2c(=O)cc(-c3ccccc3)oc2c1 ; yields the recorded call
inactive

Recorded test outcome, item CCCCCCCCCCCCCC(=O)OC1C(C)C2(O)C(C=C(CO)CC3(O)C(=O)C(C)=CC32)C2C(C)(C)C12OC(C)=O (configuration not stated)
inactive

Can you look up the reported call for CNc1ccc(C(=O)CC(O)CCC(C)C2OC(=O)CC(O)CC(=O)CC(O)CC(O)CC(O)CC(O)CC3(O)CC(O)C(C(=O)OC)C(CC(OC4OC(C)C(O)C(N)C4O)/C=C/C=C/C=C/C=C/C=C/C=C/C=C/C2C)O3)cc1 (configuration not stated) for me?
active
